Just for reference, the supplement of paper PMC11061612 is where these values come from.

// combination Emax lookup, one value per entry
System: FADU (Head and Neck Carcinoma)
Assay: combination Emax (second highest fraction inhibited in the dose matrix, 72 h); higher = more inhibition; extreme values may be limits of the assay
# output: bare number, no unit

Some solved entries appear below for comparison.
>  <COMPOUND>
NC1(C(=O)N[C@@H](CCO)c2ccc(Cl)cc2)CCN(c2ncnc3[nH]ccc23)CC1 [Capivasertib] + C[C@@H]1COCCN1C2=NC(=NC(=C2)C3(CC3)[S@](=N)(=O)C)C4=C5C=CNC5=NC=C4 [AZD6738] (first compound max 10 µM, 7x7, partner max 10 µM)

>  <TARGET>
FADU (Head and Neck Carcinoma)

>  <RECORDED MEASUREMENT>
0.594

$$$$
>  <COMPOUND>
COc1cccc(OCCCN)c1-c1cc(Nc2cnc(C#N)cn2)n[nH]1 [Prexasertib] + O=C(c1cc(Cc2n[nH]c(=O)c3ccccc23)ccc1F)N1CCN(C(=O)C2CC2)CC1 [Olaparib] (first compound max 1 µM, 7x7, partner max 10 µM)

>  <TARGET>
FADU (Head and Neck Carcinoma)

>  <RECORDED MEASUREMENT>
0.897

$$$$
>  <COMPOUND>
C=CCn1c(=O)c2cnc(Nc3ccc(N4CCN(C)CC4)cc3)nc2n1-c1cccc(C(C)(C)O)n1 [AZD1775] + O=C(c1cc(Cc2n[nH]c(=O)c3ccccc23)ccc1F)N1CCN(C(=O)C2CC2)CC1 [Olaparib] (first compound max 1 µM, partner max 10 µM)

>  <TARGET>
FADU (Head and Neck Carcinoma)

>  <RECORDED MEASUREMENT>
0.591

$$$$

Next:
Supply reported combination Emax belonging to this compound: CN(CCO)CC[C@H](CSc1ccccc1)Nc1ccc(S(=O)(=O)NC(=O)c2ccc(N3CCC([C@@H](O)c4ccccc4-c4ccc(Cl)cc4)CC3)cc2)cc1S(=O)(=O)C(F)(F)F [AZD4320] + CN(C)CCCOc1ccc(-c2ccc3ncc4c(c3c2)n(C2CCOCC2)c(=O)n4C)cn1 [AZD0156] (first compound max 1 µM, 7x7, partner max 1 µM)
0.124

----------
System: SF539 (Glioblastoma)
Experiment: combination Emax (second highest fraction inhibited in the dose matrix, 72 h); higher = more inhibition; extreme values may be limits of the assay
ATTRIBUTE MEASURED: combination Emax
# output: bare number, no unit

>  <MOLECULE>
Cc1nc(Nc2ncc(C(=O)Nc3c(C)cccc3Cl)s2)cc(N2CCN(CCO)CC2)n1 [Dasatinib] + CC(=O)Nc1cccc(-n2c(=O)n(C3CC3)c(=O)c3c(Nc4ccc(I)cc4F)n(C)c(=O)c(C)c32)c1 [Trametinib] (first compound max 2 µM, 7x7, partner max 1 µM)

>  <combination Emax>
0.602

$$$$
>  <MOLECULE>
CS(=O)(=O)CCNCc1ccc(-c2ccc3ncnc(Nc4ccc(OCc5cccc(F)c5)c(Cl)c4)c3c2)o1 [Lapatinib] + NC1(c2ccc(-c3nc4ccn5c(=O)[nH]nc5c4cc3-c3ccccc3)cc2)CCC1 [MK-2206] (first compound max 10 µM, 7x7, partner max 10 µM)

>  <combination Emax>
0.953

$$$$
>  <MOLECULE>
COc1cc2c(cc1OCCCCCOc1cc3c(cc1OC)C(=O)N1C=C(C)C[C@H]1C=N3)N=C[C@@H]1CC(C)=CN1C2=O [SG3199] + O=C(c1cc(Cc2n[nH]c(=O)c3ccccc23)ccc1F)N1CCN(C(=O)C2CC2)CC1 [Olaparib] (first compound max 0.001 µM, 7x7, partner max 10 µM)

>  <combination Emax>
0.268

$$$$
>  <MOLECULE>
C=CCn1c(=O)c2cnc(Nc3ccc(N4CCN(C)CC4)cc3)nc2n1-c1cccc(C(C)(C)O)n1 [AZD1775] + Nc1ccn([C@@H]2O[C@H](CO)[C@@H](O)C2(F)F)c(=O)n1 [Gemcitabine] (first compound max 1 µM, partner max 0.3 µM)

>  <combination Emax>
0.986

$$$$
>  <MOLECULE>
Cc1nc(-c2cn3c(n2)-c2ccc(-c4cnn(C(C)(C)C(N)=O)c4)cc2OCC3)n(C(C)C)n1 [Taselisib] + O=C(Nc1ccc2[nH]nc(-c3ccncc3)c2c1)[C@@H]1CCN(CC(=O)N2CCN(c3ccc(-c4ncccn4)cc3)CC2)C1 [SCH772984] (first compound max 10 µM, 7x7, partner max 5 µM)

>  <combination Emax>
0.934

$$$$
>  <MOLECULE>
CN(CCO)CC[C@H](CSc1ccccc1)Nc1ccc(S(=O)(=O)NC(=O)c2ccc(N3CCC([C@@H](O)c4ccccc4-c4ccc(Cl)cc4)CC3)cc2)cc1S(=O)(=O)C(F)(F)F [AZD4320] + C=CCn1c(=O)c2cnc(Nc3ccc(N4CCN(C)CC4)cc3)nc2n1-c1cccc(C(C)(C)O)n1 [AZD1775] (first compound max 1 µM, partner max 1 µM)

>  <combination Emax>
0.978

$$$$

Supply reported combination Emax belonging to this molecule: Cc1c2c(nn1C)CSCc1cc(n(C)n1)CSc1cc(c3ccccc3c1)OCCCc1c(C(=O)O)n(C)c3c-2c(Cl)ccc13 [AZD5991] + CC(=O)O[C@H]1C(=O)[C@@]2(C)[C@H]([C@H](OC(=O)c3ccccc3)[C@]3(O)C[C@H](OC(=O)[C@H](O)[C@@H](NC(=O)c4ccccc4)c4ccccc4)C(C)=C1C3(C)C)[C@]1(OC(C)=O)CO[C@@H]1C[C@@H]2O [Paclitaxel] (first compound max 1 µM, 7x7, partner max 3 µM)
0.971

Supply reported combination Emax belonging to this molecule: Cc1c2c(nn1C)CSCc1cc(n(C)n1)CSc1cc(c3ccccc3c1)OCCCc1c(C(=O)O)n(C)c3c-2c(Cl)ccc13 [AZD5991] + CCN(CCO)CCCOc1ccc2c(Nc3cc(CC(=O)Nc4cccc(F)c4)[nH]n3)ncnc2c1 [AZD2811] (first compound max 1 µM, 7x7, partner max 1 µM)
0.553

Supply reported combination Emax belonging to this molecule: CN(CCO)CC[C@H](CSc1ccccc1)Nc1ccc(S(=O)(=O)NC(=O)c2ccc(N3CCC([C@@H](O)c4ccccc4-c4ccc(Cl)cc4)CC3)cc2)cc1S(=O)(=O)C(F)(F)F [AZD4320] + Nc1ccn([C@@H]2O[C@H](CO)[C@@H](O)C2(F)F)c(=O)n1 [Gemcitabine] (first compound max 1 µM, 7x7, partner max 0.3 µM)
0.945

----------
Tested on: HCT-15 (Colorectal Carcinoma)
Experiment: combination Emax (second highest fraction inhibited in the dose matrix, 72 h); higher = more inhibition; extreme values may be limits of the assay
ATTRIBUTE MEASURED: combination Emax
# output: bare number, no unit

Some solved entries appear below for comparison.
>  <COMPOUND>
COc1cc2ncnc(Nc3ccc(F)c(Cl)c3)c2cc1OCCCN1CCOCC1 [Gefitinib] + CC(C)n1c(=O)n(C)c2cnc3cc(F)c(-c4ccc(OCCCN5CCCCC5)nc4)cc3c21 [AZD1390] (first compound max 10 µM, 7x7, partner max 0.3 µM)

>  <combination Emax>
0.352

$$$$
>  <COMPOUND>
CN(CCO)CC[C@H](CSc1ccccc1)Nc1ccc(S(=O)(=O)NC(=O)c2ccc(N3CCC([C@@H](O)c4ccccc4-c4ccc(Cl)cc4)CC3)cc2)cc1S(=O)(=O)C(F)(F)F [AZD4320] + Cn1cnc2c(F)c(Nc3ccc(Br)cc3Cl)c(C(=O)NOCCO)cc21 [Selumetinib] (first compound max 1 µM, 7x7, partner max 3 µM)

>  <combination Emax>
0.284

$$$$

Next:
Supply reported combination Emax belonging to this compound: CCc1c2c(nc3ccc(O)cc13)-c1cc3c(c(=O)n1C2)COC(=O)[C@]3(O)CC [SN-38] + CN(C)CCCOc1ccc(-c2ccc3ncc4c(c3c2)n(C2CCOCC2)c(=O)n4C)cn1 [AZD0156] (first compound max 0.3 µM, 7x7, partner max 1 µM)
0.943

----------
Tested on: WM793B (Melanoma)
Experiment: combination Emax (second highest fraction inhibited in the dose matrix, 72 h); higher = more inhibition; extreme values may be limits of the assay
ATTRIBUTE MEASURED: combination Emax
# output: bare number, no unit

Some solved entries appear below for comparison.
>  <COMPOUND>
Cc1c2c(nn1C)CSCc1cc(n(C)n1)CSc1cc(c3ccccc3c1)OCCCc1c(C(=O)O)n(C)c3c-2c(Cl)ccc13 [AZD5991] + CN(C)CCCOc1ccc(-c2ccc3ncc4c(c3c2)n(C2CCOCC2)c(=O)n4C)cn1 [AZD0156] (first compound max 1 µM, 7x7, partner max 1 µM)

>  <ATTRIBUTE MEASURED>
combination Emax

>  <RECORDED MEASUREMENT>
0.305

$$$$
>  <COMPOUND>
CN(C)CCCOc1ccc(-c2ccc3ncc4c(c3c2)n(C2CCOCC2)c(=O)n4C)cn1 [AZD0156] + CCN(CCO)CCCOc1ccc2c(Nc3cc(CC(=O)Nc4cccc(F)c4)[nH]n3)ncnc2c1 [AZD2811] (first compound max 1 µM, 7x7, partner max 1 µM)

>  <ATTRIBUTE MEASURED>
combination Emax

>  <RECORDED MEASUREMENT>
0.323

$$$$
>  <COMPOUND>
CN(CCO)CC[C@H](CSc1ccccc1)Nc1ccc(S(=O)(=O)NC(=O)c2ccc(N3CCC([C@@H](O)c4ccccc4-c4ccc(Cl)cc4)CC3)cc2)cc1S(=O)(=O)C(F)(F)F [AZD4320] + Cn1cnc2c(F)c(Nc3ccc(Br)cc3Cl)c(C(=O)NOCCO)cc21 [Selumetinib] (first compound max 1 µM, 7x7, partner max 3 µM)

>  <ATTRIBUTE MEASURED>
combination Emax

>  <RECORDED MEASUREMENT>
0.578

$$$$
>  <COMPOUND>
C=CCn1c(=O)c2cnc(Nc3ccc(N4CCN(C)CC4)cc3)nc2n1-c1cccc(C(C)(C)O)n1 [AZD1775] + C1CN(CCC1(C(=O)N[C@@H](CCO)C2=CC=C(C=C2)Cl)N)C3=NC=NC4=C3C=CN4 [Capivasertib] (first compound max 3 µM, partner max 3 µM)

>  <ATTRIBUTE MEASURED>
combination Emax

>  <RECORDED MEASUREMENT>
0.606

$$$$
>  <COMPOUND>
CC1(C)CCC(CN2CCN(c3ccc(C(=O)NS(=O)(=O)c4ccc(NCC5CCOCC5)c([N+](=O)[O-])c4)c(Oc4cnc5[nH]ccc5c4)c3)CC2)=C(c2ccc(Cl)cc2)C1 [Venetoclax] + C1CN(CCC1(C(=O)N[C@@H](CCO)C2=CC=C(C=C2)Cl)N)C3=NC=NC4=C3C=CN4 [Capivasertib] (first compound max 1 µM, 7x7, partner max 3 µM)

>  <ATTRIBUTE MEASURED>
combination Emax

>  <RECORDED MEASUREMENT>
0.295

$$$$

Specify the recorded combination Emax for CC(=O)c1c(C)c2cnc(Nc3ccc(N4CCNCC4)cn3)nc2n(C2CCCC2)c1=O [Palbociclib] + Cc1c2c(nn1C)CSCc1cc(n(C)n1)CSc1cc(c3ccccc3c1)OCCCc1c(C(=O)O)n(C)c3c-2c(Cl)ccc13 [AZD5991] (first compound max 10 µM, 7x7, partner max 1 µM) , system: WM793B (Melanoma).
0.432

Specify the recorded combination Emax for C[C@@H](c1ccc2nccn2c1)n1nnc2ncc(-c3cnn(C)c3)nc21 [Savolitinib] + CN(CC[C@H](CSC1=CC=CC=C1)NC2=C(C=C(C=C2)S(=O)(=O)NC(=O)C3=CC=C(C=C3)N4CCC(CC4)[C@H](C5=CC=CC=C5C6=CC=C(C=C6)Cl)O)S(=O)(=O)C(F)(F)F)CCO [AZD4320] (first compound max 1 µM, 7x7, partner max 1 µM) , system: WM793B (Melanoma).
0.137
